Data credit: PubChem BioAssay (NCI)

- System: MDA-MB-435 melanoma
- Experimental Protocol: NCI-60 one-dose screen, 48 h (100 = growth as untreated, 0 = no growth, -100 = all killed)
- Experimental Parameters: 10 µM
About 83,000 compounds went through this panel and 20% of them were active in at least one assay; those are over-represented in the sample as a whole.

{"columns": ["Compound", "Measure Unit", "growth"],
 "data": [
  ["COc1cc(-c2nc(-c3nnc(-c4cccnc4)o3)c3ccccn23)cc(OC)c1OC", "%", 99.2],
  ["CN(C)CCCN1c2ccccc2Sc2ccc(C(F)(F)F)cc21", "%", -39.3],
  ["O=[N+]([O-])c1cc2ncccc2c2ncccc12", "%", 61.9],
  ["CC(C)C[C@H](NC(=O)Cn1ccc(Nc2ccccc2)cc1=O)B(O)O", "%", -85.4],
  ["CC(=O)n1nc(C(=O)OC(C)(C)C)c2cc(F)c(F)cc21", "%", 95.9],
  ["CC1(CO)CCCC12OCCO2 (stereo unspecified)", "%", 92.8],
  ["Cn1c(N)c(N=Cc2ccccc2)c(=O)n(C)c1=O", "%", 114],
  ["CCCCCCN=C(N)CCCCCCCCCCC(N)=NCCCCCC", "%", 38.9],
  ["CCOC(=O)[C@@H]1[C@H](c2ccccc2)[C@H]([N+](=O)[O-])[C@H](c2cn(-c3ccccc3)nc2C)N1Cc1ccccc1", "%", 92.3],
  ["O=C(Nc1ccc(Oc2ccc(Nc3nc4ccccc4s3)cc2)cc1)Nc1ccc(Cl)c(Cl)c1", "%", 25.4],
  ["O=C(O)CNS(=O)(=O)c1ccc(OCCOc2ccc(S(=O)(=O)NCC(=O)O)cc2)cc1", "%", 113],
  ["COc1ccc(-c2nnc(COc3ccc(NC(=O)Nc4cccc(C(F)(F)F)c4)cc3F)o2)cc1", "%", 61.6],
  ["CCOC(=O)C(=O)Cc1cccnn1", "%", 111],
  ["Cc1nc2scc(-c3ccc(Cl)cc3)n2c(=O)c1CCN1CCOCC1", "%", 95.8],
  ["COc1cccc(C(=O)N(c2ccc(F)c(F)c2)C(C(=O)NC(C)(C)C)c2cc3c(C)cc(C)cc3nc2Cl)c1 (stereo unspecified)", "%", 63.2],
  ["Cc1cc(O)c(C2=NN(c3ccc(S(N)(=O)=O)cc3)C(c3ccc(N(C)C)cc3)C2)c(C)c1Cl (stereo unspecified)", "%", 69.3]
]}

---

- Tested on: MOLT-4 leukemia
- Experimental Protocol: NCI-60 one-dose screen, 48 h
- Experimental Parameters: 10 µM
This is part of a sample that, as a whole, favours compounds with a hit. Of some 83,000 tested, about 20% had one in any assay. Calls of active or inactive are those of the source. Rule for the calls: active = growth percent below 10; inactive = the rest.
Labels: Yes = active, No = inactive

{"columns": ["Structure Notation", "Study System", "Category"],
 "data": [
  ["COc1ccc(-c2csc(-c3cc(Cl)cc(Cl)c3Cl)n2)cc1", "MOLT-4 leukemia", "No"],
  ["COc1ccc(C(=O)c2sc3nc(-c4cccs4)ccc3c2N)cc1OC", "MOLT-4 leukemia", "No"],
  ["Cc1ccc2oc(=O)cc(/C(=C3/C=CC=N3)c3ccc[nH]3)c2c1", "MOLT-4 leukemia", "Yes"]
]}
